# key: entry, value: IC50
Study System: Purine nucleoside phosphorylase (Bos taurus)
Sequence (P55859 whole entry): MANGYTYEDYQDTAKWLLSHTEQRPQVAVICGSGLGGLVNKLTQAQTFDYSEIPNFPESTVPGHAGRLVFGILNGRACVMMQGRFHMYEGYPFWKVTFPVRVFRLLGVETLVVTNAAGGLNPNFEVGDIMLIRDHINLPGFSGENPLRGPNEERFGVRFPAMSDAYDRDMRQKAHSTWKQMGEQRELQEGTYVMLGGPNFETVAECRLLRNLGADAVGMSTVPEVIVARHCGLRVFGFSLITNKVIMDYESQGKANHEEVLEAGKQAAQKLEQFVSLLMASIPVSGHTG
Measurement Description: Inhibition of Purine nucleoside phosphorylase was evaluated against the enzyme from calf spleen in 50 mM phosphate

Smi	IC50
COc1cccc(Cc2c[nH]c3c(O)nc(N)nc23)c1	660 nM
Nc1nc(O)c2[nH]cc(Cc3cc(Cl)cc(Cl)c3Cl)c2n1	10000 nM
Nc1nc2c(Cc3cccc(C(F)(F)F)c3)c[nH]c2c(=O)[nH]1	190 nM
